Tested on: MS2 coat protein
Assay: apparent KD of MS2 coat protein; higher = weaker reporter binding
Conditions: Eterna round: R107; input ligand: theophylline 20 uM
ATTRIBUTE MEASURED: apparent KD of MS2 coat protein (nM)
Report the figure in nM without appending any unit label.

Examples with their reported apparent KD of MS2 coat protein follow.
| SEQUENCE RECORD | TARGET UNDER TEST | UNIT TEXT | apparent KD of MS2 coat protein |
| --- | --- | --- | --- |
| CUAUAUGGAAACAUAUAGAAGCGAAAGCAACGAGGACCGGUACGGCCGCCACUCGAAGAGUGGUGGACAUGAGGAUCACCCAUGU [Design 3] | MS2 coat protein | nM | 71.6 |
| AGCACAUGAGGAUCACCCAUGUGAGGUGAUACCAGUGAGAAGAAGCACCCUUGGCAGCACUUGGGUACAUGAGGAUCACCCAUGU [Exclusion Theophylline A GF9] | MS2 coat protein | nM | 77.8 |
| UCGCCCAGGAAGGAUUCCUGGGAUAUGGAAGGAGCGCUGAUGCCAGCAGGUAGGUCGCCAACGGACAUGAGGAUCACCCAUGUAC [Same State - Arginine A (Freestyle 8)] | MS2 coat protein | nM | 22.7 |
| UGAUGGUACGGAAGGAGCGUGUAAGAACAAGAACAUGAGGAUCACCCAUGUAUUAAUUUAACACAGGUAGGUCGCCGUGUUAUUG [11.H] | MS2 coat protein | nM | 35.8 |

Lookup: apparent KD of MS2 coat protein / MS2 coat protein / AUAACAUGAGGAUCACCCAUGUAACCUGAAGGAGCGGACGAAAGUCCAGGUAGGUCGCAGGACUCCUUCAACAUGGGAGAGGGAG [SSArg-A #27 NuPack the Brourd]
131

What about this sequence? AAUUCCUCACAUGAGGAUCACCCAUGUGAAGGAGCGCCGAAUAAGGCAGGUAGGUCGCACAUGGAAACCUCUACGAAAGUAGUAA [XArg-A 3 NuV1V2]
20.8

These data points were gathered from the supplement of paper PMC9170038.
